Kindly supply the reported switch fluorescence ratio values for the records listed here.
Test system: ATP;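 also: ATP exposure 15 min at 22 °C before imaging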
assay-text: switch fluorescence ratio, 500 uM ATP over buffer (Cy3 cluster intensity, sum of 5 cycles each) (fold (ratio)); higher = stronger signal-on switching upon ATP binding; sequences stand for … in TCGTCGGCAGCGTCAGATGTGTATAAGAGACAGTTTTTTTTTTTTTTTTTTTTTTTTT…TC
cond: aptamer strand: ATP DNA aptamer (quencher-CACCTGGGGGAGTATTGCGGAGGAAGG + anchor), 100 nM annealed; ATP concentration: 500 uM

record-sequence: ACACTTTTCG
experimental-readout: switch fluorescence ratio
reading: 1.01

Please state switch fluorescence ratio for every sequence in the list that follows.
1. TTGGGTTTCA
2. TATAAGGAGT
3. GTGTGACAAA

Reply text:
0.995
1.01
1

Parameter requested: switch fluorescence ratio. Apply to each item below.
1. AAAGGTTGCT
2. AGGTGCTTGG
3. AAAGATGATG
4. ACCTTTTAGT
5. TATTAGTTTG
6. GAGGGCCAGG

Reply text:
1. 1.01
2. 0.997
3. 1
4. 1.04
5. 0.997
6. 1.13

====

Tested on: ATP;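 also: ATP exposure 15 min at 22 °C before imaging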
assay-text: switch fluorescence ratio, 500 uM ATP over buffer (Cy3 cluster intensity, sum of 5 cycles each) (fold (ratio)); higher = stronger signal-on switching upon ATP binding; sequences stand for … in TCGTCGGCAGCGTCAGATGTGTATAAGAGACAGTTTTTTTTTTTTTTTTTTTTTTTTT…TC
cond: aptamer strand: ATP DNA aptamer (quencher-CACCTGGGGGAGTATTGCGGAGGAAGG + anchor), 100 nM annealed; ATP concentration: 500 uM
Threshold check on switch fluorescence ratio: at or above 1 gives satisfied, strictly below gives not satisfied.

record-sequence: CTGGGGGCAA
system-under-test: ATP;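 also: ATP exposure 15 min at 22 °C before imaging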
cat: satisfied
--
record-sequence: TGAGTTTGGT
system-under-test: ATP;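 also: ATP exposure 15 min at 22 °C before imaging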
cat: not satisfied
--
record-sequence: TGACGACGCC
system-under-test: ATP;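 also: ATP exposure 15 min at 22 °C before imaging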
cat: satisfied

Turning to the following sequence.
Inquiry: Identify whether the reported switch fluorescence ratio of the following sequence is 1 or greater: "GAGGTGGTAG"
Reply text: not satisfied

====

Give switch fluorescence ratio for every item shown.
Tested on: ATP;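 also: ATP exposure 15 min at 22 °C before imaging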
assay-text: switch fluorescence ratio, 500 uM ATP over buffer (Cy3 cluster intensity, sum of 5 cycles each) (fold (ratio)); higher = stronger signal-on switching upon ATP binding; sequences stand for … in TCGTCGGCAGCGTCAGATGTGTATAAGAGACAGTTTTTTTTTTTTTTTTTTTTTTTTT…TC
cond: aptamer strand: ATP DNA aptamer (quencher-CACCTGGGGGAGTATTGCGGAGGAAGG + anchor), 100 nM annealed; ATP concentration: 500 uM
Numbers only.

Solved entries (count: 5):
record-sequence: GCTGAAGTTC
system-under-test: ATP;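 also: ATP exposure 15 min at 22 °C before imaging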
reading: 0.993
--
record-sequence: GCATTTTTCT
system-under-test: ATP;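 also: ATP exposure 15 min at 22 °C before imaging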
reading: 0.982
--
record-sequence: GACCGTTGGA
system-under-test: ATP;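 also: ATP exposure 15 min at 22 °C before imaging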
reading: 0.987
--
record-sequence: CGTCTAAGCG
system-under-test: ATP;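 also: ATP exposure 15 min at 22 °C before imaging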
reading: 1
--
record-sequence: GTGACATGGA
system-under-test: ATP;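 also: ATP exposure 15 min at 22 °C before imaging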
reading: 1

Parameters: items (list). Returns: switch fluorescence ratio for each item.
1. AAATCCCGTA
2. ACCAGGGGGG
3. CCCTTGTACG
4. ATCCTCGGCC
5. GTTATATTGG
6. CGATAGCAGC
7. TGTTGGGGTG
8. TACAGTAGGA

Reply text:
1: 1.01; 2: 1.07; 3: 1.03; 4: 1.52; 5: 0.992; 6: 2.43; 7: 0.997; 8: 1.06

Below are some sequences; for each one, tell me its switch fluorescence ratio.
1. TAGACGTCGT
2. GCGTTTGCAT
3. GAGTATTAGG
4. ACCGCGTGGG
5. TTAGTCGGGA
6. TTTACAGCAT
7. GTTGGGCCGA

Reply text:
1: 0.965; 2: 1.03; 3: 1.02; 4: 1.04; 5: 1.02; 6: 1.06; 7: 1.03
